# System: 5α-reductase
# test-details: 5α-reductase inhibitory efficacy: DHT produced in testosterone-stimulated dermal papilla cells (DHT ELISA)
# Type: cell-based
# assay-conditions: sample concentration 50 μg/ml, 50 nM testosterone, 24 hours, produced DHT relative to control
Everything with 5α-reductase inhibitory rate (%) lower than 50% is criterion not met; everything else, including exactly 50%, is criterion met.

Is the recorded value of 5α-reductase inhibitory rate (%) equal to or greater than 50% for this molecule? CC[C@H](CC[C@@H](C)[C@H]1CC[C@H]2[C@@H]3CC=C4C[C@@H](O)CC[C@]4(C)[C@H]3CC[C@]12C)C(C)C [Compound in Example 14, β-sitosterol]
criterion not met

Is the recorded value of 5α-reductase inhibitory rate (%) equal to or greater than 50% for this molecule? C=C(C)C1CCC2(C(=O)O)CCC3(C)C(CCC4C5(C)CCC(OCCCCCCCC)C(C)(C)C5CCC43C)C12 (centres unmarked) [Compound in Example 65, O-octyl-betulinic acid]
criterion not met

Is the recorded value of 5α-reductase inhibitory rate (%) equal to or greater than 50% for this molecule? CCCCCCCC(=O)OC1CCC2(C)C(CCC3(C)C2CC=C2C4CC(C)(C)CCC4(C)CCC23C)C1(C)C (stereo not drawn) [Compound in Example 5, β-amyrin octanoate]
criterion met

Is the recorded value of 5α-reductase inhibitory rate (%) equal to or greater than 50% for this molecule? CCCCCCCC(=O)OC1CCC2(C)C(CCC3(C)C2CC=C2C4C(C)C(C)CCC4(C(=O)O)CCC23C)C1(C)C (centres unmarked) [Compound in Example 20, ursolic acid octanoate]
criterion not met

Is the recorded value of 5α-reductase inhibitory rate (%) equal to or greater than 50% for this molecule? CC1(C)CC[C@]2(C)CC[C@]3(C)C(=CC[C@@H]4[C@@]5(C)CC[C@@H](O)[C@](C)(C(=O)O)[C@@H]5CC[C@]43C)[C@@H]2C1 [Compound in Example 26, α-boswellic acid]
criterion not met
